test system: DU-145 prostate; assay: NCI-60 one-dose screen, 48 h; conditions: 10 µM unless noted
Compounds without any hit were thinned out: in the full panel of roughly 83,000, 20% have a hit. Activity calls are given as the source filed them. The calls were made as follows: active = growth percent below 10; inactive = the rest.
A correct response names exactly one class from 1 = active, 0 = inactive

Below, 6 compounds whose answers are already recorded.
1) CC(=O)O[C@H]1CC[C@H]2[C@@H]3CC[C@H]4CC=C(C)C[C@]4(C)[C@H]3CC[C@]12C; 0
2) Cc1ccc(C[As+](c2ccccc2)(c2ccccc2)c2ccccc2)cc1; 0
3) O=C(N/N=C/c1ccc(N(CCCl)CCCl)cc1)c1cc(=O)[nH]c(=O)[nH]1; 0
4) c1ccc([As]=[As]c2ccccc2)cc1 (centres undefined); 1
5) COc1ccc(/C=C\c2cc(OC)c(OC)c(OC)c2)cc1N/C=C\C(=O)c1c[nH]c2ccccc12; 1
6) CCCCOC(=O)c1ccccc1C(=O)O.CCCCOC(=O)c1ccccc1C(=O)O.[Cu+2]; 0

For `C=C=[CH][Sn]([c]1ccccc1)([c]1ccccc1)[c]1ccccc1` , which call appears in the assay record?
1

Per the records of this test, what outcome belongs to Cc1ccc(C(=O)C2CN(C)CCC2(O)c2ccc(C)cc2)cc1 (centres undefined) ?
0

Write down the call the test reported for this compound. Item: O=[As]c1ccc(C(=O)c2ccc(Oc3ccccc3)cc2)cc1 (centres undefined)
1

* * *

tested on: MCF7 breast; assay: NCI-60 one-dose screen, 48 h; details: 10 µM unless noted
This is part of a sample that, as a whole, favours compounds with a hit. Of some 83,000 tested, about 20% had one in any assay. The source made the active and inactive calls. The calls were made as follows: active = growth percent below 10; inactive = the rest.
The reply should be one of these categories: y for active, n for inactive

Example cases with answers are listed next.
1) CC1(C)N=C(N)N=C(N)N1c1cccc(C(=O)Nc2cccc(S(=O)(=O)F)c2)c1; n
2) c1ccc2nc(OCCN3CC3)ccc2c1; n
3) CCC1([N+](=O)[O-])COP(=O)(NCc2cccnc2)OC1 (stereo not drawn); n
4) C[C@]12CCc3sc(-c4ccc(Cl)cc4)nc3C1=CC[C@@H]1[C@@H]2CC[C@]2(C)C(=O)CC[C@@H]12; n

// outcome(item) with item = O=S(=O)(Cl)c1ccccc1 (tested in a mixture with another compound)
n

Any idea what this test logged for `CO[C@@H]([CH2][Hg][S]C#N)[C@@H]([CH2][Hg][S]C#N)OC` ?
n

Hi team, can someone confirm the assay call for `CCOc1cc(/C=N\Nc2nnc(C)n2N)c(C)cc1N(CCCl)CCCl` ?
y

Tell me the recorded outcome of this test for O=C1C=CC(=O)C2C1C1(Cl)C(Cl)=C(Cl)C2(Cl)C1(Cl)Cl (stereo not drawn) .
n

Recorded test call requested for COc1cccc2c1C(=O)c1c(O)c3c(c(O)c1C2=O)CC(O)(/C(C)=N/NC(=O)CCC(=O)N/N=C(\C)C1(O)Cc2c(O)c4c(c(O)c2C(OC2CC(N)C(O)C(C)O2)C1)C(=O)c1c(OC)cccc1C4=O)CC3OC1CC(N)C(O)C(C)O1 (stereo not drawn)
y

What did this assay record as the result for COc1ccc(C2SCC(=O)Nc3c2c(C)nn3-c2nc3ccc(C)cc3s2)cc1O (stereo not drawn) ?
n

Record request — test call for `n1nc(-c2nonc2-c2nn[nH]n2)n[nH]1`
n

Recorded call for `Cc1ccccc1O` ?
n

Fill in: this test's call for CN1C(=O)NC(=O)C(N=Nc2ccc(Cl)cc2)C1=O (stereo not drawn) is ___
n

* * *

test system: HCT-116 colon; assay: NCI-60 one-dose screen, 48 h (100 = growth as untreated, 0 = no growth, -100 = all killed); conditions: 10 µM unless noted
About 83,000 compounds went through this panel and 20% of them were active in at least one assay; those are over-represented in the sample as a whole.
Assay endpoint: growth (%)
Please reply with the bare figure in % and do not write the unit itself.

Worked cases, answers included:
1) NC(=O)SCC(=O)Nc1ccc([As](=O)(O)O)cc1; 85.6
2) CC1(C)N=C(N)N=C(N)N1c1ccc(CCCCc2ccc(S(=O)(=O)F)cc2)c(Cl)c1; 12.8

Below: the item to evaluate.
Reported growth, molecule `CNC(=O)O/N=C(/C)c1ccc(Cl)cc1` : ____
99.9

* * *

system: M14 melanoma; experiment: NCI-60 one-dose screen, 48 h; conditions: 10 µM unless noted
The panel holds about 83,000 compounds, 20% with a hit somewhere; the sample as a whole holds those more often. Active and inactive are the calls of the source. Rule for the calls: active = growth percent below 10; inactive = the rest.
Can you answer with just one of these options? active, inactive

// below: answered molecules
1) CC[CH2][Pb]([CH2]CC)([CH2]CC)[O]C(=O)C(F)(F)F; active
2) CO[C@@H]([CH2][Hg][S]C#N)[C@@H]([CH2][Hg][S]C#N)OC; inactive
3) CCCCCCCCCCCCOc1ccc(C(=O)Oc2ccc(CSP3(=O)OCC4OC(n5cnc6c(N)ncnc65)C(F)C4OP(=O)(O)OCC4OC(n5ccc(=O)[nH]c5=O)C(F)C4O3)cc2)cc1 (stereo not drawn); inactive
4) COC(C)(C)CCC[C@H](C)C/C=C/C(C)=C/C(=O)OC(C)C; inactive

Can you look up the reported call for CCC(C)/C=C(C)/C=C/C(=O)c1c(O)c(-c2ccc(O)cc2)c[nH]c1=O (stereo not drawn) for me?
inactive

Hello, I am checking results. What call was entered for `CCCC(C)(C)c1ccc2c(c1)OC(C)(C)[C@@H]1CC=C(C)C[C@@H]21` ?
inactive

Hi, do you know how `S=P(N1CCCCCC1)(N1CC1)N1CC1` came out in this test?
inactive

* * *

system: A498 renal; assay: NCI-60 one-dose screen, 48 h (100 = growth as untreated, 0 = no growth, -100 = all killed); conditions: 10 µM unless noted
This is part of a sample that, as a whole, favours compounds with a hit. Of some 83,000 tested, about 20% had one in any assay.
Assay endpoint: growth (%)
Express your answer in %, writing the number without its unit.

Consider the following illustrative entries.
1. COc1ccc2c(c1)NC1=C(C(=O)OC1)C2c1cc(OC)c(OC)c(OC)c1 (stereo not given); -13.7
2. CCOCC1(CCc2ccccc2)C(=O)NC(=S)NC1=O; 96.9
3. CNC(=O)Oc1ccccc1; 120
4. CCC[CH2][Sn]([CH2]CCC)([CH2]CCC)[O]C(=O)CC; -96.4

For the record NC(Cc1ccc(O)cc1)C(=O)N/N=C/c1ccc(N(CCCl)CCCl)cc1 (stereo not given) , what value of growth is listed for A498 renal?
82.3

* * *

test system: SK-MEL-5 melanoma; experiment: NCI-60 one-dose screen, 48 h; settings: 10 µM unless noted
The panel holds about 83,000 compounds, 20% with a hit somewhere; the sample as a whole holds those more often. Activity calls are given as the source filed them. Rule for the calls: active = growth percent below 10; inactive = the rest.
Would you mind answering with one of these outcomes? active, inactive

Record excerpt, results attached:
1) O=CC(Br)C(Br)c1ccccc1 (stereo unspecified); inactive
2) [O]=[Sn]([CH]1CCCCC1)[CH]1CCCCC1; active
3) c1ccc2nc(OCCN3CC3)ccc2c1; inactive
4) O=C(O)C1(Br)CC12c1ccccc1-c1ccccc12 (stereo unspecified); inactive
5) Cc1ccc(N)cc1[As]=[As]c1cc(N)ccc1C (stereo unspecified); active

Next:
Field: outcome | Entry: `CCOC(=O)C1(c2ccccc2)CCN(CC(=O)c2ccc(NC(C)=O)cc2)CC1`
inactive

* * *

tested on: MCF7 breast; test: NCI-60 one-dose screen, 48 h; conditions: 10 µM unless noted
The panel holds about 83,000 compounds, 20% with a hit somewhere; the sample as a whole holds those more often. The source made the active and inactive calls. Rule for the calls: active = growth percent below 10; inactive = the rest.
Classes to choose from: class 1 = active, class 0 = inactive

1. O=[N+]([O-])c1ccccc1N1CCNCC1; class 0
2. CC(C)(C)N(Cc1ccccc1)N=O; class 0
3. CCC(C)(C)O; class 0
4. O=C(Nc1ccc(S(=O)(=O)F)cc1)Oc1ccccc1; class 0
5. CCOc1c(Cl)cc(CNC(C)C(O)c2ccccc2)cc1OC (configuration not stated); class 0
6. O=CN1N=C(c2ccccc2)CC1c1sc(N(CCCl)CCCl)nc1Cl (configuration not stated); class 0

# outcome recorded in this test, key = `COC(=O)C[Se]C(=O)c1ccccc1OC(C)=O`
class 0

// param item: `Cc1cc(NC(=O)CCc2ccc(N3C(N)=NC(N)=NC3(C)C)cc2)ccc1S(=O)(=O)F` ; yields the recorded call
class 0

What did the test return for `CO[C@@H](c1ccccc1Cl)[C@H](C)OC(N)=O` ?
class 0

* * *

Parameter growth: see the listing below.
test system: HL-60(TB) leukemia; experiment: NCI-60 one-dose screen, 48 h (100 = growth as untreated, 0 = no growth, -100 = all killed); conditions: 10 µM unless noted
About 83,000 compounds went through this panel and 20% of them were active in at least one assay; those are over-represented in the sample as a whole.
// return numeric value only (unit: %, not printed)

These recorded examples may help you get a feel for the data.
1. COc1nc(/C=C\Nc2ccc3c(c2)OCCOCCOCCOCCO3)nc(OC)n1; 65.4
2. O=C1CN(CCN2CC(=O)NC(=O)C2)CC(=O)N1; 88
3. O=C(Nc1ccc(Br)cc1)Nc1cccc(Br)c1; 5.54
4. CC(C)(C)[Si](C)(C)OCC1OC(n2cnc3c(N)ncnc32)CC1OS(C)(=O)=O (stereo unspecified); 104
5. c1ccc2[nH]c(-c3ccc(Nc4nc(N5CCCC5)nc5[nH]ncc45)cc3)nc2c1; -32.8
6. COC(=O)[C@@H](Cc1c[nH]c2ccccc12)NC(=O)[C@H](Cc1ccccc1)NCc1ccncc1; 80.6

Data request, read-out growth, for `COc1cc(C(=O)/C=C/c2c(-c3ccc(F)cc3)nc3ncccn23)cc(OC)c1OC`
30.9
